Known protein stability index of a selection of sequences
Assay: protein stability index of a GFP-peptide fusion (GPS, HEK-293T) (PSI 1-6); higher = more stable;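 note: 24-mer peptide tiles fused after GFP, lentivirally expressed, FACS-sorted into six equal bins by GFP/DsRed ratio, decoded by Illumina sequencing, PSI is the read-weighted mean bin number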
Conditions: treatment: DMSO; c terminus: a fixed tail appended
No unit in the answer, please; the number alone is enough.

Name the recorded protein stability index of the sequence listed here: EATQFLKQILDGVHYLHSKRIAHF [DAPK3]
2.9

###

Experiment: protein stability index of a GFP-peptide fusion (GPS, HEK-293T) (PSI 1-6); higher = more stable
Conditions: treatment: MLN4924 1 uM, 8 h; c terminus: a fixed tail appended
Tick Y if protein stability index is 3 or greater. Tick N if protein stability index is less than 3.

Reference set, count: 8
{"columns": ["residue.string", "qualitative.label"],
 "data": [
  ["WFSLASVIFLLLFAPFIVYYFIMA [DHCR7]", "N"],
  ["ALKEELLFMKKNHEEEVKGLQAQI [KRT18]", "Y"],
  ["SKSCMRAVLEYLYTGMFTSSPDLD [RHOBTB2]", "N"],
  ["APIRVRNLTIRAGALTGKENNMLQ [DMRTC1]", "Y"],
  ["SSYFDSFQEAQIKRKARNEGRNRR [CDKL4]", "Y"],
  ["RNGGKYCEGRRTRFRSCNTEDCPT [ADAMTS4]", "Y"],
  ["NPRAPVIIYKQTKGGVQNFNKDLV [CEP70]", "N"],
  ["ERCSDSDEEKKARRGRSPKGEFKD [CLINT1]", "Y"]
]}

# check: protein stability index of FPLMTIEEFAAGPAQSGILSDREV [BTBD1] is greater than or equal to 3
Y

Does the reported protein stability index for NLSYKQVKTWFQNQRMKSKRWQKN [NANOGP8] fall at or above the 3 mark?
N

###

Experiment: protein stability index of a GFP-peptide fusion (GPS, HEK-293T) (PSI 1-6); higher = more stable
Details: treatment: MLN4924 1 uM, 8 h; c terminus: a fixed tail appended
Response key: 1 means protein stability index >= 3; -1 means protein stability index < 3.

Solved entries:
{"columns": ["residue.string", "qualitative.label"],
 "data": [
  ["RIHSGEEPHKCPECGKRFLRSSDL [ZNF449]", 1],
  ["SGRFIVIIPRTVIDGLDLLKKEHP [SMG5]", 1],
  ["SSTNFAMKRDVQEGQARCLAHLGR [C8orf76]", 1],
  ["KNEVGGLIKALKIFQEKHVNLLHI [TPH1]", -1],
  ["ISIVIFCLETLPEFRDDRDLVMAL [KCNA4]", -1],
  ["SQKLNFREHAKARVDHGAEIITQS [MAP2]", 1],
  ["SEKASKKYVSKELAKEIRVKAEPF [EIF5]", 1],
  ["QPPPQEEPGTPSSSPDDKLLTSPR [KLHL14]", 1],
  ["AKNYIWALSEILRIGKRPDLLTFV [NEUROD6]", -1],
  ["LRYVNSTRAPQRAHEVLQELRDIS [FBXO28]", 1]
]}

Textbook exercise: given the entry NLEKQLICPICLEMFTKPVVILPC [TRIM55] , state whether its protein stability index is greater than or equal to 3.
-1

Is protein stability index for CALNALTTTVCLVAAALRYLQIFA [FAM189A2] at or above 3?
1

Please indicate if the recorded protein stability index for RPVNKLAELQCEVAALREEQKVLS [RASAL3] meets or exceeds 3.
1

I'd appreciate it if you could say whether GSLGSRAEPAPRAREGGGCGRSEV [SMAD6] has protein stability index at least equal to 3.
1

For this sequence, is measured protein stability index 3 or higher? VDFSLSGRLLFAGYNDYTINVWDV [GNB5]
-1
